experiment: chemical genetic growth profiling, strain panel (AID 1159580);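 also: tested at 20 µM; growth read once vehicle control cultures reached saturation at 30 °C; lower values mean less growth of the strain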; conditions: S. cerevisiae deletion strains, growth OD, locus YHR200W, strain rpn10
About 2,000 (36%) of roughly 5,500 compounds were called active. Inconclusive results (about 18%) are left out. Rule as the data show it: active = normalized growth mostly below about 0.91 (no sharp cut-off); inconclusive = no clear call, values can overlap the other calls; inactive = mostly above about 0.92. The list shows a part of the results.
Outcomes: True (active), False (inactive)

* O=C(O)c1cc2cc(Cl)ccc2[nH]1 | False
* C=C(C)c1cc2cc(C(C)=O)c(O)cc2o1 | True
* N#C/C(=C\c1ccc(O)cc1)C(=O)O | False
* CC1=C2[C@](C)(C=CC1=O)C[C@H](O)[C@H]1[C@H](C)C(=O)O[C@]21C | False
* CCS(=O)(=O)CCn1c([N+](=O)[O-])cnc1C | False
* C[C@]12CCC3C(CC[C@H]4C[C@@H](O)CC[C@]34C)C1CCC2=O (stereo partly specified) | True
